# assay.target: T1, murine PILRB, ectopically expressed on 293 cells (murine, UniProt Q2YFS2 29-224)
# T1 construct: whole, on cells; also called mB
# T1 sequence (Q2YFS2 29-224): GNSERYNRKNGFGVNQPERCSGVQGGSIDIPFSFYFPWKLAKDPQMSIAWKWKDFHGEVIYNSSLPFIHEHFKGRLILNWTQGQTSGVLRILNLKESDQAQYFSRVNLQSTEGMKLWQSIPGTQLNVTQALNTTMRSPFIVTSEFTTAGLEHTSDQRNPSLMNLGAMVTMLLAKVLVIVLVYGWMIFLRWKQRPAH
# method.description: flow cytometry, 293 cells expressing target

binder: E11 (antibody, V domains shown, phage campaign) VH: QVQLVQSGAEVKKPGSSVKVSCKASGGTFSSYDISWVRQAPGQGLEWMGGIIPTFVTPKYAQKFQGRVTITADESTSTAYMELSSLRSEDTAVYYCAREGPKQLEEYYYYYMDVWGKGTTVTVSS VL: DIQMTQSPSSLSASVGDRVTITCRATQAISNSLAWYQQKPGKAPKLLIYAASYLQSGVPSRFSGSGSGTDFTLTISSLQPEDFATYYCQQAYSFPWTFGQGTKLEIK
binding result: no binding
//
binder: D2 (antibody, V domains shown, second hybridoma campaign) VH: QIQLGQSGPELKRPRETVKISCKASGYTFTTYGMSWVKQAPGKGLRWMGWINTHSGVPAYADDFKGRFAFSLETSANTAFLQINNLENEDTATYFCAKDYNWGMDYWGQGTSVIVSS VL: QLVLTQSSSASFSLGASAKLTCTLSSQHSTYTIEWYQQQPLKPPKYVMEVKKDGSHSTGDGIPDRFSGSSSGADRYLSISNIQPEDEAIYICGVGDSIKEQFVYVFGGGTKVTVL
binding result: no binding
